Target or system 5-hydroxytryptamine receptor 2A (Rattus norvegicus, UniProt P14842); metric Ki; compiled from varied reports.
readout_kind: Ki (nM)

molecule=CC(C)n1ccc2cc3c(cc21)CCN3C(=O)Nc1cccnc1 value_measured=3980
molecule="O=C1NC2(CCc3ccccc32)C(=O)N1CCCCN1CCN(c2cccc(C(F)(F)F)c2)CC1 (configuration not stated)" value_measured=87
molecule=COc1ccccc1N1CCN(CCCOc2ccc(-c3nc4ccccc4[nH]3)cc2)CC1 value_measured=109
molecule=Clc1ccc(N2CCN(Cc3cn(-c4ccc(Cl)cc4)nn3)CC2)cc1 value_measured=3220
molecule=O=C(N[C@H]1CC(=O)N(CCCCN2CCN(c3cccc(Cl)c3)CC2)C1=O)C1CCCCC1 value_measured=6.51

P = Fc1ccc(OC(CC2CCNCC2)c2ccccc2)cc1 (configuration not stated)
Q = Fc1ccc(OC(c2cccc(F)c2)C2CCNCC2)cc1 (configuration not stated)
# compare Ki for P vs Q ; return the one with the smaller value I would appreciate it if you answered with the label of your choice.
P

I = O=c1oc2cc(OCCCCN3CCN(c4cccc(Cl)c4Cl)CC3)ccc2c2c1CCC2
II = c1ccc(N2CCN(Cc3cnn(-c4ccccc4)c3)CC2)cc1
III = COc1ccccc1N1CCN(C(=N)NCCCCNS(=O)(=O)c2ccc(C)cc2)CC1
IV = O=C(CCCCCN1CCN(c2noc3ccccc23)CC1)c1ccccc1O
V = Cn1c2c(c3cccc(Cl)c31)CN(CCCOc1ccc(F)cc1)CC2
# desc sort on Ki across 5 molecules Provide the labels, sequenced as the question asks.
II, III, V, I, IV
(II: 1750 nM, III: 340 nM, V: 210 nM, I: 79.3 nM, IV: 7.97 nM)
